Origin of values: ChEMBL document CHEMBL4130341

# Experimental target: Nuclear factor erythroid 2-related factor 2 (Mus musculus) (UniProt Q60795)
# Sequence (Q60795 whole entry): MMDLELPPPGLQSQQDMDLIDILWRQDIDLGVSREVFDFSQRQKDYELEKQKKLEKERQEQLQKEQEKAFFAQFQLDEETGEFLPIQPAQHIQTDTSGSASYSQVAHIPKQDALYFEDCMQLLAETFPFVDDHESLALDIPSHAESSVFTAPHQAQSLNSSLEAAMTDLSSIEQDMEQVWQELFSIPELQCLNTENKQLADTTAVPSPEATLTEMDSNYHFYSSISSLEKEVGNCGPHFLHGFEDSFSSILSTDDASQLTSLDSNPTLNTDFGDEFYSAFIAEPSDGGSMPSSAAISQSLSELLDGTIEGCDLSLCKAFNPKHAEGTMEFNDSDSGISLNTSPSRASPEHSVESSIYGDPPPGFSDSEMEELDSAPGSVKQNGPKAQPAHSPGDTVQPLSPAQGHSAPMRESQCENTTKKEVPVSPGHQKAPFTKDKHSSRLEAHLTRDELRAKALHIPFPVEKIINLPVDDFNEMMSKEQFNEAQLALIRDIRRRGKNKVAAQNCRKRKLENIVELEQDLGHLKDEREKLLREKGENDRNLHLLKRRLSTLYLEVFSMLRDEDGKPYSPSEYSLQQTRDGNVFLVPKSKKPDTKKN
# Assay overview: Ratio of activation of wild type Nrf2 in mouse Hepa1c1c7 cells cytosolic fraction to activation of Nrf2 in mutant mouse BpRc1 cells cytosolic fraction
# Type: cell-based
Class boundaries, taken from values of Ratio, are as follows: low band = under 0.9, middle band = from 0.9 up to 2, high band = 2 and over

| Molecule | Experimental target | Class assignment |
| --- | --- | --- |
| O=C(CC(O)c1ccccc1)c1c(O)ccc2ccccc12 (configuration not stated) | Nuclear factor erythroid 2-related factor 2 (Mus musculus) (UniProt Q60795) | high band |
| O=C(/C=C/c1cccc2ccccc12)c1ccccc1O | Nuclear factor erythroid 2-related factor 2 (Mus musculus) (UniProt Q60795) | middle band |
| O=c1cc(-c2ccc(Br)cc2)oc2ccccc12 | Nuclear factor erythroid 2-related factor 2 (Mus musculus) (UniProt Q60795) | high band |
| O=C(/C=C/c1cccc2ccccc12)c1ccccc1 | Nuclear factor erythroid 2-related factor 2 (Mus musculus) (UniProt Q60795) | middle band |
| O=C(CC(CC(=O)c1ccccc1)c1cccc2ccccc12)c1ccccc1 | Nuclear factor erythroid 2-related factor 2 (Mus musculus) (UniProt Q60795) | low band |

Lab note: which band did `O=C(/C=C/c1ccccc1)c1ccc2ccccc2c1` land in?
low band

Next molecule: `O=C(/C=C/c1ccc2ccccc2c1)c1ccccc1O`
high band

Next molecule: `O=C(/C=C/c1ccnc2ccccc12)c1cccc2ccccc12`
low band

Next molecule: `O=C(/C=C/c1ccc2ccccc2c1)c1ccc2ccccc2c1O`
middle band

Next molecule: `O=C(/C=C/c1ccc2ccccc2c1)c1c(O)ccc2ccccc12`
high band

Next molecule: `O=C(/C=C/c1cncc(Br)c1)c1ccccc1O`
middle band

====

# Assay overview: Cytotoxicity against wild type mouse Hepa1c1c7 cells after 48 hrs by SRB assay
# Assay type: functional, cell-based
# Condition label: Hepa-1c1c7, 48 h
Overview of reported IC50 across a group of compounds:
# value in µM; strip the unit string

| Smiles notation | IC50 (µM) |
| --- | --- |
| O=C(/C=C/c1cccc2ccccc12)c1ccccc1O | 33 |
| CC(C)(C)c1cc(O)ccc1O | 147 |
| O=C(/C=C/c1cccnc1Br)c1ccccc1O | 39 |
| O=C(/C=C/c1ccc2ccccc2c1)c1ccccc1O | 85 |

Shift focus to the following entry.
// returns reported IC50 for input `O=c1cc(-c2ccc(Br)cc2)oc2ccccc12`
85

====

# Experimental target: Nuclear factor erythroid 2-related factor 2 (Mus musculus) (UniProt Q60795)
# Assay overview: Activation of Nrf2 in wild type mouse Hepa1c1c7 cells cytosolic fraction assessed as induction of quinone reductase activity at 10 uM using 2,6-DCIP as substrate in presence of NADH incubated for 48 hrs measured for 1 min relative to control
Overview of reported fold change (FC) across a group of compounds:

| Compound | fold change (FC) |
| --- | --- |
| O=c1cc(-c2ccc(Br)cc2)oc2ccccc12 | 4.45 |
| O=C(/C=C/c1ccc2ccccc2c1)c1ccc2ccccc2c1O | 1.44 |
| O=C(/C=C/c1ccccc1)c1cccc2ccccc12 | 0.98 |
| O=C(/C=C/c1cncc(Br)c1)c1ccc2ccccc2c1O | 2.3 |
| O=C(CC(O)c1ccccc1)c1ccc2ccccc2c1 (stereo unspecified) | 5.04 |

Shift focus to the following entry.
// returns reported fold change (FC) for input `O=C(/C=C/c1cccc2ccccc12)c1ccccc1O`
3.21
